meta.source: the nanobody polyreactivity screen of Harvey et al. (2022)

# runDescription: yeast display, Sf9 membrane polyspecificity reagent, FACS + sequencing; frameworks hold sequencing errors

itemSequence	polyreactivity (PSR sort gate)
QVQLVESGVGLVQAGGSLRLSCAASGSTFKFYSMGWYRQAPGTERELVASITSSSGPTYFADSVKGRFTNSLDNAKNTVYLQMNSLKQEDTAVYYCAKRPIRYYHLLRGNYWGHGTQVTVSS	low polyreactivity
QVQLVESGGGLVQAGGSLRLSCAASGRIFKPYAMGWYRQAPGKERELVASISRRGGSTYYADSVKGRFTISRDNAKNTVYLQMNSLKPEDTAVYDCNASGTYISLGYDYWGQGTQVTVSS	high polyreactivity
QVQLVESGGGLVQAGGSLRLSCAASGIIFGRYAMGWYRQAPGKERELVAAINGSGGSTYYADSVKGRFTISRDNAKNTVYLQMNSLKPEDTAVYYCAANGFLRNGYWGQGTQVTVSS	high polyreactivity
QVQLVESGGGLVQAGGSLRLSCAASGSTFQRYAMGWYRQAPGKERELVASISTSGGSTYYAHSVKGRFTISRDNAKNTVYLQMNSLKPEDTAVYYCAAQGWSRQVREGWIKRDYWGQGTQVTVSS	high polyreactivity
QDQLVESGGGLVQAGGTLRLSCAASGRIFPYNAMGWYRQAPGKERQLVAAISKSGVRTYYADSVKGRFTISRDNAKNTVYLQMNSLNPEETAVYYCAKLSPYGGDVGASEGPEYDYWGQGTQVTVSS	high polyreactivity
QVQLVESGGGLVQAGGSLRLSCAASGRIFDINAMGWYRQAPGKERELVAAINYNGSSTYYADSVKGRFTISRDNAKNTVYLEMNSLKPEDTAVYYCATEQVDVYTYDYWGQGTQVTVSS	high polyreactivity
QVQLVESGGGLVQAGGSLRLSCAASGLTFVFYAMGWYRQAPGKETELVAAISSSGGSTNYADSVKGRFTISRDNEKNTVYLQMKSLKPEDTAVYYCAATPYYSQYDYWGQGTQVTVSS	high polyreactivity
QDQLVESRGGLVQAGGSLRLSCAAYGRTFIPYAMGWNSQATGKERELVAAITVRGSSTYYADSVKGRFTISRDNAKNTVYFQMNSLKPEDTAIYYCATDRRYRAFYYWGQGTQVTVSS	high polyreactivity
QVQLVESGGGLVQAGGSLRLSCAASGLIFWYNAMGWYRQAPGKEREFVAAITSDGGRTYYADSVKGRFTISRDNAKNTVYLQMNSLKPEDTAVYYCTARGYGYLGRKGGYSYGYYYWGQGTQVTVSS	low polyreactivity
QVQLVESGGGLVQAGGSLRLSCAASGSTFQLYAMGWYRQAPGKEREFVAAIRGRGGNTYADSVKGRFTISRDNAKNTVFLQMNSLKPEDTAVYYCAAPLLRDLRSPYSYNYWGQGTQVTVSS	low polyreactivity
QVQLVESGGGLVQAGGSLRLICAASGSTFVLYAMGWYRQAPGKERELVAAITKRGGNTYYADSVKGRFTISRDNAKNTVYLQMNSLKPEDTAVYYCAADHVRSPFDSWGQGTQVTVSS	low polyreactivity

---

# runDescription: yeast display, Sf9 membrane polyspecificity reagent, FACS + sequencing; frameworks hold sequencing errors
measurementKind: polyreactivity (PSR sort gate)

itemSequence	result
QVHLVQTRGGLVQAGGSLRLSCAASGLTFTYYAMGWNRPEPGKERQLVSAISSSGSDTYYADSVKGRFTISRDYALNTVYFQMNSLKTEDTAVYYCAAVLTALSPDFEYEYWGQGTQVTVSS	low polyreactivity
QVQLVESGGGLVQAGGSLRLSCAACGRIFVYYVMGWYRQAPGKERELVAAISNSGTSTYYADSLKGRFTISRDNAKNTVYLQMNSLKPEDTAVYYCNTVGQRWLSDDDYWGQGTQVTVSS	low polyreactivity
QLQLVESGGGLVQAGGSLRLSCAASGFTFRWNGMGWYRQAPGKERELVPSISSTGGSTYYADSVKGRFTISRDNAKNTVYLQMNSLKPEDTAVYYCNAVVTYHYSVTSVGSRFDYWGQGTQVTVSS	high polyreactivity
QVQQQESGGGLVQAGGSLRLSCAASGTIFQLTVMGRYRQAPGKERELVASIDYGGNTNYADSVKGRFTISRDNAKKTVYLQKYIVKPEDTAVYYCAAYSDSWTTHPYWGQVTQVTVSS	low polyreactivity
QVQLVESGGGLVQAGGSLRLSCAASGRIFGIYTMGWYRQAPGKERELVAAITQGGGSTYYADSVKGRFTISRDNAKNTVYLQMNSLNPEDTAVYYCAARPKSPSGTRRYYWGQGTQVTVSS	high polyreactivity
QVQLVESGGGLVQAGGSLRISCAATGRIFGPYTMGWYRQAPGKERELVARISRRGGSTYYADSVKGRFTISRDNAKNTVYFQMNSLKPEDTAVYYCARSQAVYDGWFAKFGYWGQGTQVTVSS	high polyreactivity
QFQLEESGGGLVQAGGSLRLSCAASGSIFKGYTMGWYRQAPRKVREFVASMSRRGGSTYYADSVKGRFTISRDYAKNTVYLQMNSLKPEDTAVYYCAKDYGKAYDDWGQGTQVTVSS	high polyreactivity
QVQLVESGGGLGQAGGSLRLSCAASGRIFNTYAMGWYRQAPGKERELVAAITRSAGRTYYADSVKGRFTISRDNAKNTGYLQMNSQKPEDTAVYYCAAQYNYGQRSGPYGYWGQGTQVTVSS	low polyreactivity
QVQLQESGGGLVQAGGSLRLSCAASGTISYPRTMGWYRQAPGKEREFVAGIGVGGTTYYADSVKGRFTISRDNAKYTVYLQMNILKPEDAAVYYCAVAAYYDKYYVYWGQGTQVTVSF	low polyreactivity
QVQLVESGGGLVQAGGSLRLSCAASGLIFSGSAMGWYRQAPGKERELVAAITWSGGSTYYADSVKGRFTISRDNAKNSVYLQMNSQKPEDTAVYYCNAKFYQISRYGYWGQGTQVTVSS	high polyreactivity
QVQLVESGGGLVQAGGSLRLSCAASGRTFAYNAMGWYRQAPGTERELVAAITGSGGRTYYADSVKGRFTLSRDNAKYTVYLQMNSLIPEDTAVYYCAVGLPSRYDYWGQGTQVTVSS	low polyreactivity
QVQLVESGGGLVQAGGSLRLSCAASGRTFVWNAMGWYRQAPGKERELVAAIDWSGGSTYYADSVKGRFTISRDNAKNTVYLQMNSLKPEDSAVYYCAKEYWYRALWYNYWGQGTQVTVSS	high polyreactivity
QVQLVESGGGLVQAGGSLRLSCAASGITLYNYAMGWYRQAPGKERELVAAISLSGGRTYYADSVKGRFTISRDNAKNTVYLQMNSLKPEDTAVYYCAADWLNSDPYNYWGQGTQVTVSS	low polyreactivity
QVQLVESGGGLVQAGGSLRLSCAASGITIARYAMGWYRQAPGKERELVAAITRSGGRTYYADSVKGRFTISRDNAKITVYLQMKSLKPEDTAVYYCYNVTRGKNHGTKYDYWGQGTQVTVSS	high polyreactivity
QVQLVESGGGLVQAGGSLRLSCAASGSTFYVYAMGWYRQAPGKERELVAVIRYRGDRTYYADSVKGRFTISRDNAKNTVYLQMNSLKPEDTAVYYCAKEGFYKYYWGQGTQVTVSS	high polyreactivity
QVQLVESGGGLVQAGGSHSLSCAASGSTFKHYAMGWYRQAPGKERELVAAISWGGVNTDYADSVKGRFTISRDNAKNTVYLQMNSLNPEDTAVYYCAAGRWSVGTYDYWGQGTQVTVSS	low polyreactivity
QVQLVESGGGLVQAGGSLRLSCAASGRTFRRYAMGWYRQAPGKEREFVAAIRYSGGNTYYADSVKGRFTISRDNAKNTVYLQMNSLKPEDTAVYYCAARTYGKYRYSTYYYWGQGTQVTVSS	low polyreactivity
QVQLVESGGGLVQAGGSLRLSCAASGFTFVAYAMGWYRQAPGKERELVAAISRRGGPTYYADSVKGRFTISRDNAKYTVYLQMNSLKAEDTAVYYCAAGWKAFDQRRTGRLIRLLGQGTQVTVSS	high polyreactivity
QDQLVESGGGLVQAGGSLRLSCAASGSTLYSNTMGWYRPAPGKERELVAAICWSGASTYYADSVKGRFSISRDNAKNTVYLQMNSLKPEDTAVYYCAAGAYRNWGLYYYWGQGTQVTVSS	high polyreactivity
QVQLVESGGGLVQAGGSLRLSCAASGGTFVHYTMGWYRPAPGKERELVASIRRGGSTNYADSVKGRFTISRDNAKNTVYLQMNSLKPEDTAVYYCAKRVQHYRYYYWGQGSQVTVSS	low polyreactivity
QVQLVESGGGLDQAGGSLRLSCADSGSIFYVYTMGWYRQAPGKERELVAAITSGDGTYYADSVKGRFTISRDNAKSTVYLQMNSLKPEDTAVYYCNADESAYWKLRHGLGSDSWGQGTQVTVSS	low polyreactivity

---

# runDescription: yeast display, Sf9 membrane polyspecificity reagent, FACS + sequencing; frameworks hold sequencing errors

itemSequence	polyreactivity (PSR sort gate)
QVQLVESGGGLVQAGGSLRLSCAASGSIFRKNVMGWSRPAPGKERELVAAITASGGRTYYADSVKGRFTISRDNAKNTVYLQMNSLKPEDTAVYYCAARRYYPYISSGPYYYWGQGTQVTVSS	high polyreactivity
QVQLVESGGGLVQAGGTLRLSCAASGSTLYPYDMGWYRQAPGKERELVAAIDSGGSTNYADSVKGRFTISRDNAKNTVYLQMNRLKPEDTAVYYCAADASGENDYWGQGTQVTVSS	low polyreactivity
QVQLVESGGGLVQAGGSLRLSCAASGFTFRAYVMGWSRQAPGKERELVAAISRSGGSTYYADSVKGRLTISRDNAKNTVYLQMNSLKPEDTAVYYCAAGVPGPRVKIQARFDYWGQGTQVTVSS	high polyreactivity
QVQLVESGGGLVQAGGSLRLSCAASGFTFKQYGMGWYRQAPGKERELVASISYRGGSTHYADSVKGRFTISRDNAKKTVYLQMNSLKPEDTAVYYCAARVTSRTSIKGDYWGQGTQVTVSS	low polyreactivity
QVQLVESGGGLVQAGGSLRLSCAASGRTFGIYAMGWYRQAPGKEREFVAAISWSGTSTHYADSVKGRFTISRDNAKNTVYLQMNSLKPEDTAVYYCNADSRTYRYYWSYGYWGQGTQVTVSS	high polyreactivity
